Attribute: relative binding ratio
assayedTarget: T1, Soluble CDCP1 extracellular domain (CDCP1-ECD) (SEQ ID NO:30) fused to Streptavidin Binding Protein (SBP) (human, UniProt Q9H5V8 30-663)
T1 construct: also called SBP-CDCP1-ECD
T1 sequence: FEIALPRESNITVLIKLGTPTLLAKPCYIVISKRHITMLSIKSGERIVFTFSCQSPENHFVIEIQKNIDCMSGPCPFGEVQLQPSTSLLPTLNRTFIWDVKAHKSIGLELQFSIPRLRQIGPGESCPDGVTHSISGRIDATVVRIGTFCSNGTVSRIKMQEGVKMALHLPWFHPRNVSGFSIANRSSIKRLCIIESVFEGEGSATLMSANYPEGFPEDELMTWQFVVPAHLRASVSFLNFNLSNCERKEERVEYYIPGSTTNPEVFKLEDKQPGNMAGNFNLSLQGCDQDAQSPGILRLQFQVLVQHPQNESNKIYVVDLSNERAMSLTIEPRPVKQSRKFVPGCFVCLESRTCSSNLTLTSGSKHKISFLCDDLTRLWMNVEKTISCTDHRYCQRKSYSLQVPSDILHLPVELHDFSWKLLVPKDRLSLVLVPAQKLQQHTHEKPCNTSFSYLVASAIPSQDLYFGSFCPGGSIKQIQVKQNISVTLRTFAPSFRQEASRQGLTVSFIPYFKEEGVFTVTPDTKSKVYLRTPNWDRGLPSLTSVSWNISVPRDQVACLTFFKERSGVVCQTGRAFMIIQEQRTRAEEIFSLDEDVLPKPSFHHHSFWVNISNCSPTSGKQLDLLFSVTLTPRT
assayDetails: ELISA on captured SBP-CDCP1-ECD, ratio relative to chimeric CUB4 (chHC4)
# answer = number (no unit)

The following binders have reported results that may help.
hHC4-03 / hLC4-d (antibody, V domains shown) VH: EVQLLESGGGLVQPGGSLRLSCAASGFTFNSYGMSWVRQAPGKGLEWVSAISSGGSYTYYPDSVKGRFTISRDNSKNTLYLQMNSLRAEDTAVYYCAKHPDYDGVWFAYWGQGTLVTVSS VL: EIVMTQSPATLSVSPGERATLSCSVSSSVFYVHWYQQKPGQAPRLLIYDTSKLASGIPARFSGSGSGTEYTLTISSLQSEDFAVYYCQQWNSNPPTFGGGTKVEIK | 0.07
Humanized CUB4 Antibody No. 102 (antibody, IgG1, V domains shown, Only variable domains are tied to the antibody; Human constant region, preferably IgG1; also called hHC4-H / hLC-b) VH: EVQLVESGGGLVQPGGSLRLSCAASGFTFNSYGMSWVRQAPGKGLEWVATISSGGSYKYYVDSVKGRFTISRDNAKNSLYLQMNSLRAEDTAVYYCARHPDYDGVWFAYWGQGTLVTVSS VL: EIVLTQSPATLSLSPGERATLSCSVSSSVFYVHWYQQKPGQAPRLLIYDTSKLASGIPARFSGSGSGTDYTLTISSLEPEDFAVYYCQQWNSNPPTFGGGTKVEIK | 0.53

Q: What measured relative binding ratio goes with hHC4-c / chLC4 (antibody, V domains shown) VH: EVQLVESGGGLVQPGGSLRLSCAASGFTFNSYGMSWVRQAPGKGLEWVATISSGGSYTYYPDSVKGRFTISRDNAKNSLYLQMNSLRAEDTAVYYCARHPDYDGVWFAYWGQGTLVTVSS VL: QIVLTQSPAIMSASPGEKVTMTCSVSSSVFYVHWYQQKSGTSPKRWIYDTSKLASGVPARFSGSGSGTSYSLTISSMEAEDAATYYCQQWNSNPPTFGGGTKLEIK ?
Result: 1
